Tested on: Escherichia coli TOP10;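 also: peptides expressed intracellularly from a pBAD plasmid library in pooled LB shake-flask culture, induced with 0.3% L-arabinose, DNA abundance read by NGS, three biological replicates, DESeq2 with apeglm shrinkage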
assay.name: shrunken log2 fold change of peptide-encoding DNA abundance (4.5 h post-induction vs induction); higher = less antimicrobial activity (less host growth inhibition)
measurement.parameters: time post-induction: 4.5 h; library: site-saturation at positions 5, 18, 19, 20
property.measured: shrunken log2 fold change

{"columns": ["seq.text", "property.measured", "observed.measurement"],
 "data": [
  ["RRIRIRPPRLPRPRPRPYAPPRP", "shrunken log2 fold change", -0.242],
  ["RRIRCRPPRLPRPRPRPCYTPRP", "shrunken log2 fold change", -0.397],
  ["RRIRHRPPRLPRPRPRPLTYPRP", "shrunken log2 fold change", -0.402],
  ["RRIRGRPPRLPRPRPRPWSCPRP", "shrunken log2 fold change", 0.202],
  ["RRIRGRPPRLPRPRPRPSDIPRP", "shrunken log2 fold change", 0.399],
  ["RRIRFRPPRLPRPRPRPCMCPRP", "shrunken log2 fold change", -0.544],
  ["RRIRRRPPRLPRPRPRPKPFPRP", "shrunken log2 fold change", 0.655],
  ["RRIRERPPRLPRPRPRPSSTPRP", "shrunken log2 fold change", -0.32]
]}
